Can you tell me pEC50 for the items I'm about to list?
Target: […]F508-CFTR (Homo sapiens, UniProt P13569, DEL508-508)
Sequence (P13569 with tags, fused parts or gaps DEL508-508): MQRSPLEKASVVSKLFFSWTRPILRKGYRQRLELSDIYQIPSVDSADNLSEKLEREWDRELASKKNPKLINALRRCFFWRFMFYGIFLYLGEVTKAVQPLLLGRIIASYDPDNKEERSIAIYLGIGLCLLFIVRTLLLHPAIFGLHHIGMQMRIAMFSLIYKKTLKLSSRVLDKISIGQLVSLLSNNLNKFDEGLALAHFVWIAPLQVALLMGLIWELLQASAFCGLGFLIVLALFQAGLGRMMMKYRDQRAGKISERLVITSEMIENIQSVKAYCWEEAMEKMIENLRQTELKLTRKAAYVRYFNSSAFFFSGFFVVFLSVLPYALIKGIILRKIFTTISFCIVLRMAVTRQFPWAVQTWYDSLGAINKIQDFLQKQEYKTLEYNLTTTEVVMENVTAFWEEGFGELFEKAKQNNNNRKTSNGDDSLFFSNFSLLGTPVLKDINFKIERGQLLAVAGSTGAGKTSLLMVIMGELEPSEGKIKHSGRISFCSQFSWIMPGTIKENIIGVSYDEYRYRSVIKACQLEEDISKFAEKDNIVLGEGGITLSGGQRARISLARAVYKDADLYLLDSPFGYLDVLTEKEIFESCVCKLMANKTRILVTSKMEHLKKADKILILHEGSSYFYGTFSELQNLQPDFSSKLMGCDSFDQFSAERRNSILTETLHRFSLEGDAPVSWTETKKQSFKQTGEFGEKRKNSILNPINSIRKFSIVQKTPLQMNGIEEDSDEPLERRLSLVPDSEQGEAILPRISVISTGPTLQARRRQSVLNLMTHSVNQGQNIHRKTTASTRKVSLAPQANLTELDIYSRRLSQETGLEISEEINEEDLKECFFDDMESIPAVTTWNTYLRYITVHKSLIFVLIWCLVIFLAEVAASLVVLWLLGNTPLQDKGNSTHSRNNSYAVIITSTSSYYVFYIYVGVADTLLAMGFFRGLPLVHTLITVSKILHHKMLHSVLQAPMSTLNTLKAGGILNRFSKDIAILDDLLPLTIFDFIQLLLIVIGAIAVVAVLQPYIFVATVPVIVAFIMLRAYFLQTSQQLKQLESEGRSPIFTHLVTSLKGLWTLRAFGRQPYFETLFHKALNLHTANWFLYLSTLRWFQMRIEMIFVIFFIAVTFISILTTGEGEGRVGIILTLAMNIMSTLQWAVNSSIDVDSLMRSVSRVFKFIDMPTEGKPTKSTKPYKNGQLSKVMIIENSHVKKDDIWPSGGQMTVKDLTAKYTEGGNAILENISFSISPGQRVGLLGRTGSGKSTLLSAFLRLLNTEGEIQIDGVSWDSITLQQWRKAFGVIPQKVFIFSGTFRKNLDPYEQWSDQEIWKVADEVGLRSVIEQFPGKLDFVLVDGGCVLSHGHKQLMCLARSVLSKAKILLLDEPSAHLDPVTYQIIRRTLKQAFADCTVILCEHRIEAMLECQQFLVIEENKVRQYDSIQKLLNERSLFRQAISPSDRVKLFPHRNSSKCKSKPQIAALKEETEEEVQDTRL
Assay: Assay results of Table 3: ΔF508-CFTR modulation, membrane potential optical assay (assay format not stated)
Details: potency range; NIH3T3 mouse fibroblasts stably expressing […]F508-CFTR (optical assays)
Excerpt: A. Membrane Potential Optical Methods for Assaying […]F508-CFTR Modulation Properties of Compounds […] These voltage sensitive assays are based on the change in fluorescence resonant energy transfer (FRET) between the membrane-soluble, voltage-sensitive dye, DiSBAC2(3), and a fluorescent phospholipid, CC2-DMPE, which is attached to the outer leaflet of the plasma membrane and acts as a FRET donor. […]
pEC50: −log10 of the molar value.

Here are 4 molecules together with their reported answers.
* NC(=O)c1cc(-c2ccccc2)nc(N2CCC(C(=O)c3ccc(F)cc3)CC2)n1 [Compound 60] | < 5.30
* Cc1ccccc1-c1cc(C(N)=O)nc(N2CCCCC2)n1 [Compound 114] | 5.30 to 6.00
* COc1ccc(S(=O)(=O)N2CCN(c3nc(C(N)=O)cc(-c4ccccc4)n3)CC2)cc1 [Compound 195] | < 5.30
* CCCN(CC1CC1)c1nc(C(N)=O)cc(-c2ccccc2)n1 [Compound 87] | 5.30 to 6.00

Lab note: each molecule below needs its pEC50 filled in.
1. CCCC1CCN(c2nc(C(N)=O)cc(-c3ccccc3)n2)CC1 [Compound 73]
2. COc1cccc(-c2cc(C(N)=O)nc(NCC3CC3)n2)c1 [Compound 203]
3. C#CCNc1nc(C(N)=O)cc(-c2ccccc2)n1 [Compound 154]
4. NC(=O)c1cc(-c2ccccc2)nc(-n2cccn2)n1 [Compound 57]
5. CCOC(=O)CN(C)c1nc(C(N)=O)cc(-c2ccccc2)n1 [Compound 209]

Result:
["5.30 to 6.00", "< 5.30", "< 5.30", "< 5.30", "5.30 to 6.00"]

====

Biological target: […]F508-CFTR (Homo sapiens, UniProt P13569, DEL508-508)
Assay: Assay results of Table 3: ΔF508-CFTR modulation, membrane potential optical assay (assay format not stated)
Settings: potency range; NIH3T3 mouse fibroblasts stably expressing […]F508-CFTR (optical assays)
I'd appreciate it if you could supply EC50 values for the items below.

The cases that follow already have their EC50 on record.
* CN(CC(O)c1ccccc1)c1nc(C(N)=O)cc(-c2ccccc2)n1 (stereo not shown) [Compound 101] | > 5 µM
* CCN(CC)c1nc(C(N)=O)cc(-c2ccc(Cl)cc2Cl)n1 [Compound 200] | < 1 µM
* NC(=O)c1cc(-c2ccccc2)nc(N2CC=C(c3ccc(Cl)cc3)CC2)n1 [Compound 3] | > 5 µM
* Cc1ccc(-c2cc(C(N)=O)nc(N3CCCCC3)n2)cc1C [Compound 40] | > 5 µM
* COc1ccc(-c2cc(C(N)=O)nc(N3CCCCC3)n2)cc1 [Compound 142] | > 5 µM

Dear colleague, could you please provide EC50 for the compounds listed below?
1. COc1ccc(Cl)cc1-c1cc(C(N)=O)nc(N2CCCCC2)n1 [Compound 115]
2. CCOC(=O)C1CCN(c2nc(C(N)=O)cc(-c3ccccc3)n2)CC1 [Compound 99]
3. CCOc1ccc(-c2cc(C(N)=O)nc(N3CCCCC3)n2)cc1 [Compound 198]
4. CCN(CCO)c1nc(C(N)=O)cc(-c2ccccc2)n1 [Compound 4]
5. NC(=O)c1cc(-c2ccccc2)nc(N2CCCC2)n1 [Compound 26]
6. CCN(CC)c1nc(C(N)=O)cc(-c2cccc(CO)c2)n1 [Compound 158]
7. C=CCNc1nc(C(N)=O)cc(-c2ccccc2OC)n1 [Compound 178]

Result:
["1 to 5 µM", "1 to 5 µM", "1 to 5 µM", "> 5 µM", "1 to 5 µM", "> 5 µM", "1 to 5 µM"]

Parameters: items (list). Returns: EC50 for each item.
1. CCN(CC)c1nc(C(N)=O)cc(-c2cc3ccccc3s2)n1 [Compound 81]
2. NC(=O)c1cc(-c2ccccc2)nc(N(Cc2ccccc2)Cc2ccccc2)n1 [Compound 92]
3. COc1ccc(-c2cc(C(N)=O)nc(N3CCCCC3)n2)cn1 [Compound 22]
4. NC(=O)c1cc(-c2ccc(OC(F)(F)F)cc2)nc(N2CCCCC2)n1 [Compound 182]
5. CN(CCc1ccccc1)c1nc(C(N)=O)cc(-c2ccccc2)n1 [Compound 38]
6. NC(=O)c1cc(-c2ccccc2)nc(N2CCC2)n1 [Compound 183]
7. NC(=O)c1cc(-c2cccc(F)c2F)nc(N2CCCCC2)n1 [Compound 6]

Result:
1: 1 to 5 µM; 2: 1 to 5 µM; 3: > 5 µM; 4: 1 to 5 µM; 5: 1 to 5 µM; 6: > 5 µM; 7: 1 to 5 µM

====

Molecular target: […]F508-CFTR (Homo sapiens, UniProt P13569, DEL508-508)
Test: Assay results of Table 3: ΔF508-CFTR modulation, membrane potential optical assay (assay format not stated)
Conditions: potency range; NIH3T3 mouse fibroblasts stably expressing […]F508-CFTR (optical assays)
Assignment: determine reported EC50 for the given compounds.

Study these solved cases before continuing.
* CCCN(CCO)c1nc(C(N)=O)cc(-c2ccccc2)n1 | 1 to 5 µM
* NC(=O)c1cc(-c2ccccc2)nc(N2CCC(O)(c3ccc(Cl)cc3)CC2)n1 | > 5 µM
* CN(C)C(=O)c1cc(-c2ccccc2)nc(NCc2ccco2)n1 | > 5 µM
* NC(=O)c1cc(-c2ccccc2)nc(N2CCSCC2)n1 | 1 to 5 µM
* CC1CN(c2nc(C(N)=O)cc(-c3ccccc3)n2)CC(C)O1 (stereo not drawn) | > 5 µM
* CCNc1nc(C(N)=O)cc(-c2ccc(OC)cc2)n1 | > 5 µM

Each of the following entries comes with a recorded value; kindly state EC50 for each.
1. CCc1ccc(-c2cc(C(N)=O)nc(N(CC)CC)n2)cc1
2. COc1cccc(-c2cc(C(N)=O)nc(N(C)C)n2)c1
3. NC(=O)c1cc(-c2ccccc2)nc(N2CCCCCC2)n1

Result:
1: 1 to 5 µM; 2: > 5 µM; 3: 1 to 5 µM

====

Target: […]F508-CFTR (Homo sapiens, UniProt P13569, DEL508-508)
Assay: Assay results of Table 3: ΔF508-CFTR modulation, membrane potential optical assay (assay format not stated)
Settings: potency range; NIH3T3 mouse fibroblasts stably expressing […]F508-CFTR (optical assays)
pEC50: −log10 of the molar value.
For each record, write down the corresponding pEC50.

// solved cases for pEC50 follow
- CCOc1cccc(-c2cc(C(N)=O)nc(N(CC)CC)n2)c1: > 6.00
- CCN(CC)c1nc(C(N)=O)cc(-c2ccccc2OC)n1: > 6.00

I need pEC50 for every entry listed below, if you could help.
1. CNc1nc(C(N)=O)cc(-c2ccccc2)n1
2. Cc1cccc(-c2cc(C(N)=O)nc(N3CCCCC3)n2)c1
3. CCN(CC)c1nc(C(N)=O)cc(-c2cc(C)cs2)n1
4. CNC(=O)c1cc(-c2ccccc2)nc(N2CCCCCC2)n1
5. COc1ccc(C2(CNc3nc(C(N)=O)cc(-c4ccccc4)n3)CC2)cc1OC
6. CCN(CC)c1nc(C(=O)N(C)C)cc(-c2ccccc2)n1
7. NC(=O)c1cc(-c2ccccc2)nc(NC2CCCC2)n1

Result:
1: < 5.30; 2: < 5.30; 3: > 6.00; 4: 5.30 to 6.00; 5: < 5.30; 6: < 5.30; 7: < 5.30

Query: Which pEC50 reading was recorded for the compound COc1ccc(-c2cc(C(N)=O)nc(NCc3ccco3)n2)cc1 ?
Result: < 5.30

====

Target: […]F508-CFTR (Homo sapiens, UniProt P13569, DEL508-508)
Experiment: Assay results of Table 3: ΔF508-CFTR modulation, membrane potential optical assay (assay format not stated)
Settings: potency range; NIH3T3 mouse fibroblasts stably expressing […]F508-CFTR (optical assays)
Excerpt: A. Membrane Potential Optical Methods for Assaying […]F508-CFTR Modulation Properties of Compounds […] These voltage sensitive assays are based on the change in fluorescence resonant energy transfer (FRET) between the membrane-soluble, voltage-sensitive dye, DiSBAC2(3), and a fluorescent phospholipid, CC2-DMPE, which is attached to the outer leaflet of the plasma membrane and acts as a FRET donor. […]
Recorded metric: EC50

• COCCCNc1nc(C(N)=O)cc(-c2cccc(OC)c2)n1 [Compound 88] = > 5 µM
• NC(=O)c1cc(-c2ccccc2)nc(N2CCCCCCC2)n1 [Compound 86] = < 1 µM
• CN(CCc1c[nH]c2ccccc12)c1nc(C(N)=O)cc(-c2ccccc2)n1 [Compound 63] = 1 to 5 µM

I need EC50 for every entry listed below, if you could help.
1. CCN(CCO)c1nc(C(N)=O)cc(-c2cccc(OC)c2)n1 [Compound 123]
2. NC(=O)c1cc(-c2ccccc2OC(F)(F)F)nc(N2CCCCC2)n1 [Compound 152]
3. COc1ccc(-c2cc(C(N)=O)nc(N3CCCCC3)n2)cc1OC [Compound 124]
4. COc1ccccc1-c1cc(C(N)=O)nc(N2CCCCC2)n1 [Compound 205]
5. CCN(CC)c1nc(C(=O)NC)cc(-c2ccccc2)n1 [Compound 47]
6. CCN(CC)c1nc(C(N)=O)cc(-c2cc(Cl)cc(Cl)c2)n1 [Compound 226]

Result:
> 5 µM
1 to 5 µM
1 to 5 µM
> 5 µM
1 to 5 µM
1 to 5 µM
